FYI, the data here is from ChEMBL document CHEMBL2034923.

molecular target: Streptopain (Streptococcus pyogenes) (UniProt P0C0J0); assay: Inhibition of Streptococcus pyogenes 5448 SpeB using n-bezoyl-proline-phenylalanine-arginine-p-nitroanilide hydrochloride as substrate at 30 mM incubated for 15 mins prior to substrate addition measured after 30 mins by colorimetry
Sequence (P0C0J0 whole entry): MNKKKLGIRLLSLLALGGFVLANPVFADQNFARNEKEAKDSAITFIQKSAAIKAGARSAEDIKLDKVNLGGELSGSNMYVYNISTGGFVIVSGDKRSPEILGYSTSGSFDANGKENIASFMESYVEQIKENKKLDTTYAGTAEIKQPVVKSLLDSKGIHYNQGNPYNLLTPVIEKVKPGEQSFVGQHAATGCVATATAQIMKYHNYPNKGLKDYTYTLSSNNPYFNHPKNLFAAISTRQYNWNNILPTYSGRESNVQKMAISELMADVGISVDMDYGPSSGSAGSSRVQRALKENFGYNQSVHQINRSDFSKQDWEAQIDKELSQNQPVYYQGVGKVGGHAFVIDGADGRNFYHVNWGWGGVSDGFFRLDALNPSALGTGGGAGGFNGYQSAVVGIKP
Active and inactive are the calls of the source. The calls are words filed in the database; no cut-off is given here. Where a SMILES comes first, the peptide text is derived from it.
REPORTED_ENDPOINT: inhibition

Would you please look over these solved cases?
[
  {
    "COMPOUND": "CCN(CC(N)=O)[C@H]1CCCN(C(=O)[C@H](CC(C)C)NC(=O)[C@@H](N)CC(C)C)C1",
    "REPORTED_ENDPOINT": "inhibition",
    "VALUE_REPORTED": "Active"
  },
  {
    "COMPOUND": "CC(C)C[C@H](N)C(=O)N1CCC[C@H](NCC(N)=O)C1",
    "REPORTED_ENDPOINT": "inhibition",
    "VALUE_REPORTED": "inactive"
  },
  {
    "COMPOUND": "CC(C)C[C@H](NC(=O)[C@@H](N)CC(C)C)C(=O)NCC(=O)NCC(=O)O (H-LLGG-OH)",
    "REPORTED_ENDPOINT": "inhibition",
    "VALUE_REPORTED": "Active"
  },
  {
    "COMPOUND": "NC(=O)CN[C@H]1CCCNC1",
    "REPORTED_ENDPOINT": "inhibition",
    "VALUE_REPORTED": "inactive"
  },
  {
    "COMPOUND": "CCN(CC(N)=O)[C@@H]1CCCN(C(=O)[C@H](CC(C)C)NC(=O)[C@@H](N)CC(C)C)C1",
    "REPORTED_ENDPOINT": "inhibition",
    "VALUE_REPORTED": "Active"
  },
  {
    "COMPOUND": "CC(C)C[C@H](NC(=O)[C@@H](N)CC(C)C)C(=O)N1CCC[C@H](NCC(N)=O)C1",
    "REPORTED_ENDPOINT": "inhibition",
    "VALUE_REPORTED": "inactive"
  }
]

Please state, for each entry, its recorded inhibition.
1. CC(C)C[C@H](N)C(=O)N1CCC[C@H](NCC(=O)N2CCC[C@H]2C(N)=O)C1
2. CC(C)C[C@H](N)C(=O)N1CCC[C@@H](NCC(=O)N2CCC[C@H]2C(N)=O)C1
3. NC(=O)CN[C@@H]1CCCNC1
4. CC(C)C[C@H](N)C(=O)NCC(=O)N1CCC[C@H](N2CCC[C@H]2C(N)=O)C1
5. CC(C)C[C@H](N)C(=O)NCC(=O)N1CCC[C@@H](N2CCC[C@H]2C(N)=O)C1
6. CC(C)C[C@H](N)C(=O)N1CCC[C@@H](NCC(N)=O)C1
7. CC(C)C[C@H](NC(=O)[C@@H](N)CC(C)C)C(=O)N1CCC[C@@H](NCC(N)=O)C1

Result:
["inactive", "inactive", "inactive", "Active", "Active", "inactive", "inactive"]
